- Test system: hydroxyl radical
- PROTOCOL DETAILS: Inhibitory effects on hydroxyl radical formation (1) (xanthine/xanthine oxidase, deoxyribose)
- Format: biochemical
- MEASUREMENT CONDITIONS: 360 μM test compound; 36 μM ammonium iron (III) sulphate; xanthine oxidase 0.7 unit/ml; 37° C., 15 minutes; pH 7.4 to 7.8
QUANTITY MEASURED: % Inhibition of hydroxyl radical

Param item = O=C(O)C(CO)NCc1ccccc1O (stereo not drawn) [Synthesis Example 2] ; retrieve measured % Inhibition of hydroxyl radical.
29%

Param item = O=C(O)C(Cc1ccc(O)cc1)N=Cc1c(O)ccc2ccccc12 (stereo not drawn) [Synthesis Example 31] ; retrieve measured % Inhibition of hydroxyl radical.
16%

Param item = O=C(O)C(CCO)NCc1ccccc1O (stereo not drawn) [Synthesis Example 3] ; retrieve measured % Inhibition of hydroxyl radical.
15%

Param item = O=C(O)[C@H](Cc1c[nH]cn1)NCc1ccccc1O [Synthesis Example 1, N-(2-hydroxybenzyl)-L-histidine] ; retrieve measured % Inhibition of hydroxyl radical.
29%

Param item = O=C(O)CC(O)(CC(=O)O)C(=O)O [Citric acid, reference compound] ; retrieve measured % Inhibition of hydroxyl radical.
-33%

Param item = O=C(O)C(CO)N=Cc1c(O)ccc2ccccc12 (stereo not drawn) [Synthesis Example 28] ; retrieve measured % Inhibition of hydroxyl radical.
19%

====

Exercise: state measured Wavelength (nm) of maximum absorption for each of the compounds provided.
- PROTOCOL DETAILS: UV absorptive activities
- Type: physicochemical
- MEASUREMENT CONDITIONS: 100 μM in ethanol (water or DMSO added if not soluble)
Structures can show the parent of a compound that is named as a salt.
Dear colleague, please return just the value in nm, with no unit written.

Param item = O=C(O)[C@H](Cc1c[nH]cn1)N=Cc1c(O)ccc2ccccc12 [Synthesis Example 27, N-(2-hydroxy-1-naphthal)-L-histidine] ; retrieve measured Wavelength (nm) of maximum absorption.
309

Param item = O=C(O)C(CO)N=Cc1c(O)ccc2ccccc12 (stereo not drawn) [Synthesis Example 28] ; retrieve measured Wavelength (nm) of maximum absorption.
307

Param item = Cc1ncc(CO)c(C=N[C@@H](Cc2c[nH]cn2)C(=O)O)c1O [Synthesis Example 68, N-pyridoxilidene-L-histidine-sodium salt] ; retrieve measured Wavelength (nm) of maximum absorption.
291
